- assay.protocol: viability loss with induced miR-34 in A549 – imaging, A549 dox-inducible miR-34, nuclei and caspase counts, primary screen (AID 1347080)
- condition.details: A549 miR-34 inducible, Hoechst nuclei count, 48 h; stronger effect = lower value; cell number ratio, induced over uninduced

{"columns": ["structure", "fold change"],
 "data": [
  ["C=CC(=O)Nc1cccc(Sc2nc(Nc3ccc(N4CCN(C)CC4)cc3)ncc2Cl)c1", 0.881],
  ["N#CC1(c2ccc(NC(=O)c3cccnc3NCc3ccncc3)cc2)CCCC1", 0.862],
  ["c1ccc(CN2CCC3(CCc4ccccc43)CC2)cc1", 0.952],
  ["CCCCCCCCCCCCCCCCCC(=O)NCCO", 0.986],
  ["CC(C)n1nnc2cc(C(=O)O)ccc21", 0.911],
  ["CC(C)c1cc(C(C)C)c(CC(=O)NS(=O)(=O)Oc2c(C(C)C)cccc2C(C)C)c(C(C)C)c1", 0.956]
]}

----------
- assay.protocol: viability loss with induced miR-34 in A549 – imaging, A549 dox-inducible miR-34, nuclei and caspase counts, primary screen (AID 1347080)
- condition.details: A549 miR-34 inducible, Hoechst nuclei count, 48 h; measured here: total cells with miR-34 induction; stronger effect = lower value
Param label: returns 1.0 when cell count < 4000, returns 0.0 otherwise, including exact equality.

{"columns": ["structure", "group.label"],
 "data": [
  ["COc1cc(N)c(Cl)cc1C(=O)OCCCN1CCCCC1", 0.0],
  ["Cc1c(CC(C)(C)C(=O)O)n(Cc2ccc(Cl)cc2)c2ccc(F)cc12", 0.0],
  ["CC(C)(C)c1cnc(CSc2cnc(NC(=O)C3CCNCC3)s2)o1", 1.0],
  ["CC(C)ON(CC(=O)NO)S(=O)(=O)c1ccc(-c2ccccc2)cc1", 0.0],
  ["CCCCN1CCC(CCC(=O)c2cc(Cl)c(N)cc2OC)CC1", 0.0],
  ["Cc1cn(-c2cc(NC(=O)c3ccc(C)c(Nc4nccc(-c5cccnc5)n4)c3)cc(C(F)(F)F)c2)cn1", 1.0],
  ["CC(=O)Nc1cccc(-n2c(=O)n(C3CC3)c(=O)c3c(Nc4ccc(I)cc4F)n(C)c(=O)c(C)c32)c1", 0.0],
  ["CNC(=O)c1ccc(N2C(=S)N(c3cnc(C#N)c(C(F)(F)F)c3)C(=O)C23CCC3)cc1F", 0.0],
  ["OCCn1cc(-c2cnc3nnn(Cc4ccc5ncccc5c4)c3n2)cn1", 0.0]
]}

----------
- Test system: Aerobactin synthetase IucA (Klebsiella pneumoniae)
- assay.protocol: inhibition of K. pneumoniae IucA enzyme – biochemical, Tocris library, absorbance (AID 1345561);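 note: 100% = enzyme without compound and 0% = no enzyme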
- condition.details: purified IucA enzyme assay, absorbance (OD) read-out; stronger effect = lower value; concentration not given here

{"columns": ["compound", "measure.unit", "remaining activity"],
 "data": [
  ["Cc1c(C(=O)N(C)C2CCCCC2)sc2nc3ccc(N)cc3n12", "%", 121],
  ["c1ccc2cc(C3=NCCN3)ncc2c1", "%", 113],
  ["Cc1nnc(-c2ccc3occ(-c4ccc(S(C)=O)cc4)c3c2)o1 (configuration not stated)", "%", 113],
  ["CC1=C(C(=O)OCCN(Cc2ccccc2)c2ccccc2)C(c2cccc([N+](=O)[O-])c2)C(P2(=O)OCC(C)(C)CO2)=C(C)N1 (configuration not stated)", "%", 131],
  ["COc1cccc(NC(=O)/C=C/c2ccc(Cl)cc2)c1", "%", 93.6],
  ["BrC1C(Br)C(Br)C(Br)C(Br)C1Br (configuration not stated)", "%", 107],
  ["CC(C)Oc1cccc(-n2c(CCc3c[nH]c4ccc(Br)cc34)nc3ccccc3c2=O)c1", "%", 110],
  ["Oc1ccc(-c2nc3cc(O)cc(Br)c3o2)cc1", "%", 98.9],
  ["CSc1ccc([C@H]2CN3CCC[C@H]3c3ccccc32)cc1", "%", 123],
  ["COC(=O)Nc1ccc2[nH]cc(CCNC(C)=O)c2c1", "%", 121],
  ["c1ccc2oc(C3=NCCN3)cc2c1", "%", 116],
  ["CCS(=O)(=O)N1CCC[C@@H]2CN3CCc4cc(OC)ccc4[C@@H]3C[C@@H]21", "%", 87.2],
  ["c1cc2c3c(c1)c1c(n3CCNC2)CCCC1", "%", 120],
  ["Cc1ccc2c(=O)c3ccccc3n(CCCN)c2c1C", "%", 96.6],
  ["COc1ccc(S(=O)(=O)N2c3ccc(Cl)cc3[C@](O)(c3ccccc3Cl)[C@@H]2C(=O)N2CCC[C@H]2C(N)=O)cc1OC", "%", 97.7],
  ["CC(O)(C(=O)Nc1ccc(S(=O)(=O)c2ccccc2)cc1)C(F)(F)F (configuration not stated)", "%", 125],
  ["CCN(CC)CCCCN1c2ccccc2Oc2ccc(Cl)cc21", "%", 88.2],
  ["C/C(=N\\NC(=O)[C@@H]1C(=O)NC[C@H]1c1ccccc1)c1cccc(Br)c1", "%", 103],
  ["CCCCCCCC/C=C\\CCCCCCCC(=O)N[C@@H](CO)Cc1ccc(O)cc1", "%", 129],
  ["Nc1[nH]nc2nnc(-c3c(-c4ccccc4)nn4ccccc34)cc12", "%", 115],
  ["CCN(CC)CC1CCN(c2ncc3ncnc(Nc4ccc(F)c(Cl)c4)c3n2)CC1", "%", 124],
  ["CS(=O)(=O)Nc1c(O)ccc2c1CCCC2C1=NCCN1 (configuration not stated)", "%", 114]
]}

----------
- assay.protocol: viability loss with induced miR-34 in A549 – imaging, A549 dox-inducible miR-34, nuclei and caspase counts, primary screen (AID 1347080)
- condition.details: A549 miR-34 inducible, Hoechst nuclei count, 48 h; stronger effect = lower value; cell number ratio, induced over uninduced

{"columns": ["compound", "fold change"],
 "data": [
  ["O=Cc1cccc2[nH]ccc12", 1.14],
  ["CC(=O)OCC(=O)[C@@]12N=C(C)O[C@@H]1CC1C3CCC4=CC(=O)C=C[C@]4(C)C3[C@@H](O)C[C@@]12C (stereo partly specified)", 0.915],
  ["CCCCCCC(Sc1nc(Cl)cc(NCc2ccc(-c3ccccc3)cc2)n1)C(=O)O (stereo unspecified)", 0.993],
  ["CCCCCCCCCCCCCCCCCCCCCCCCCCCCCCO", 0.965],
  ["CCCC[C@H](CCC(=O)O)NC(=O)CCCCCCc1ccccc1", 0.993],
  ["CCCCC/C=C\\C/C=C\\CC/C=C\\CCCC(=O)OCC", 1.04],
  ["CCOC(=O)[C@H]1O[C@@H]1C(=O)N[C@@H](CC(C)C)C(=O)NCCC(C)C", 0.97],
  ["C/C(O)=C1/C(=O)[C@@H]2[C@H]3c4c[nH]c5cccc(c45)C[C@H]3C(C)(C)N2C1=O", 0.988],
  ["Cc1ccc(/C=C2\\CNC/C(=C\\c3ccc(C)cc3)C2=O)cc1", 0.9],
  ["Brc1cc2c(cc1[C@H]1Nc3ccccc3[C@H]3C=CC[C@H]31)OCO2 (racemic)", 0.953],
  ["O=S(=O)(NCCCCCCc1ccccc1)c1cccc2c(Cl)cccc12", 0.934],
  ["Cn1cnc2c(F)c(Nc3ccc(Br)cc3Cl)c(C(=O)NOCCO)cc21", 1.01],
  ["O=C(NCCCN1CCC2(CC1)OCc1ccccc12)[C@H]1CCCN1Cc1ccccc1", 0.953],
  ["CCCCC#Cc1nc(NC)c2ncn([C@@H]3O[C@H](CO)[C@@H](O)[C@H]3O)c2n1", 0.906],
  ["CC(C)(C)C(=O)Nc1ccccc1", 0.896],
  ["O=C(O)CCC/C=C\\C[C@@H]1[C@@H](/C=C/[C@@H](O)Cc2ccccc2)[C@H](O)C[C@@H]1O", 0.969],
  ["CNC(=O)c1ccc(C)c(-n2c(C)cc(OCc3ccc(F)cc3F)c(Br)c2=O)c1", 0.88],
  ["CCCCC[C@@H](O)/C=C/[C@H]1[C@H](O)CC(=O)[C@@H]1CCCCCCC(=O)O", 0.974],
  ["CCCCC/C=C\\C/C=C\\CC/C=C\\CCCC(=O)OC", 0.951],
  ["O=C(O)CCC/C=C\\C[C@@H]1[C@@H](/C=C/[C@H](O)CCc2ccccc2)[C@H](O)C[C@@H]1O", 0.915],
  ["CCn1c(=O)n(C2=C(CO)CN(CC3CCCCCCC3)CC2)c2ccccc21", 0.951]
]}

----------
- assay.protocol: growth inhibition, single agents and combos, ICB984, cell-based, cisplatin or BGB combos, synergistic combos for chromothripsis tumors (AID 1671451);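 note: cells exposed for 96 hours before readout; 0% = vehicle DMSO and 100% = killing by high DMSO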
- condition.details: ICB984 medulloblastoma cells, drug combinations, BGB IC40 combo, at 0.005 µM, stronger effect = higher value

{"columns": ["structure", "inhibition [%]"],
 "data": [
  ["NC(=O)c1nc(F)c[nH]c1=O", -2.11],
  ["Cc1ccc([N+](=O)[O-])cc1S(=O)(=O)N(C)/N=C/c1cnc2ccc(Br)cn12", 89.9],
  ["c1cc(Nc2cc(C3CC3)[nH]n2)nc(Nc2ccc3nc[nH]c3c2)n1", 91.5],
  ["O=c1[nH]cnc2ccccc12", -31.8],
  ["Nc1ccc(-c2ccc3ncc4ccc(=O)n(-c5cccc(C(F)(F)F)c5)c4c3c2)cn1", 13.6],
  ["Nc1nc2n[nH]nc2c(=O)[nH]1", -9.06]
]}
